FYI, the data here is from patent US20200031778A1.

experiment: Log P by HPLC on reversed phase columns (EEC directive 79/831 Annex V.A8; methods [a], [b], [c])
Type: physicochemical
quantity measured: LogP

Use these answered entries as a reference point.
1. C#Cc1ccc(C(O)(Cn2cncc2C#N)C2(F)CC2)c(F)c1 (stereo not drawn) [I-647] : 2.21^[a]
2. CC(O)(Cn1cncc1C#N)c1cnc(Oc2ccc(Br)cc2)cc1C(F)F (stereo not drawn) [I-258] : 2.68^[a]
3. CC(O)(Cn1cncc1F)c1cnc(Oc2ccc(C(F)(F)F)cc2)cc1Cl (stereo not drawn) [I-244] : 2.13^[a]
4. N#Cc1cncn1CC(O)(c1ccc(F)c(F)c1)C1(F)CC1 (stereo not drawn) [I-445] : 2.17^[a]
5. CCCC#Cc1ccc(C(O)(Cn2cncc2C#N)C2(F)CC2)c(Cl)c1 (stereo not drawn) [I-641] : 3.52^[a]
6. OC(Cn1cncc1F)c1cnc(Oc2ccc(OC(F)(F)F)cc2)cc1C(F)(F)F (stereo not drawn) [I-121] : 2.42^[a]
7. CC(O)(Cn1cncc1C#N)c1ccc(Oc2ccc(C(F)(F)F)nc2)nc1C(F)(F)F (stereo not drawn) [I-294] : 2.76^[a]
8. N#Cc1cncn1CC(O)c1cnc(Oc2ccc(C(F)(F)F)cc2)cc1Br (stereo not drawn) [I-130] : 3.13^[a]

Query string: Bench note: what LogP did COc1ccc(Oc2ccc(C(C)(O)Cn3cncc3Cl)c(Cl)n2)c(Cl)c1 (stereo not drawn) [I-163] show?
Result string: 2.30^[a]
